# measured_target: rNav1.2 sodium channels (Rattus norvegicus, UniProt P04775)
# Construct: host or cells: HEK-293
# Sequence (P04775 whole entry): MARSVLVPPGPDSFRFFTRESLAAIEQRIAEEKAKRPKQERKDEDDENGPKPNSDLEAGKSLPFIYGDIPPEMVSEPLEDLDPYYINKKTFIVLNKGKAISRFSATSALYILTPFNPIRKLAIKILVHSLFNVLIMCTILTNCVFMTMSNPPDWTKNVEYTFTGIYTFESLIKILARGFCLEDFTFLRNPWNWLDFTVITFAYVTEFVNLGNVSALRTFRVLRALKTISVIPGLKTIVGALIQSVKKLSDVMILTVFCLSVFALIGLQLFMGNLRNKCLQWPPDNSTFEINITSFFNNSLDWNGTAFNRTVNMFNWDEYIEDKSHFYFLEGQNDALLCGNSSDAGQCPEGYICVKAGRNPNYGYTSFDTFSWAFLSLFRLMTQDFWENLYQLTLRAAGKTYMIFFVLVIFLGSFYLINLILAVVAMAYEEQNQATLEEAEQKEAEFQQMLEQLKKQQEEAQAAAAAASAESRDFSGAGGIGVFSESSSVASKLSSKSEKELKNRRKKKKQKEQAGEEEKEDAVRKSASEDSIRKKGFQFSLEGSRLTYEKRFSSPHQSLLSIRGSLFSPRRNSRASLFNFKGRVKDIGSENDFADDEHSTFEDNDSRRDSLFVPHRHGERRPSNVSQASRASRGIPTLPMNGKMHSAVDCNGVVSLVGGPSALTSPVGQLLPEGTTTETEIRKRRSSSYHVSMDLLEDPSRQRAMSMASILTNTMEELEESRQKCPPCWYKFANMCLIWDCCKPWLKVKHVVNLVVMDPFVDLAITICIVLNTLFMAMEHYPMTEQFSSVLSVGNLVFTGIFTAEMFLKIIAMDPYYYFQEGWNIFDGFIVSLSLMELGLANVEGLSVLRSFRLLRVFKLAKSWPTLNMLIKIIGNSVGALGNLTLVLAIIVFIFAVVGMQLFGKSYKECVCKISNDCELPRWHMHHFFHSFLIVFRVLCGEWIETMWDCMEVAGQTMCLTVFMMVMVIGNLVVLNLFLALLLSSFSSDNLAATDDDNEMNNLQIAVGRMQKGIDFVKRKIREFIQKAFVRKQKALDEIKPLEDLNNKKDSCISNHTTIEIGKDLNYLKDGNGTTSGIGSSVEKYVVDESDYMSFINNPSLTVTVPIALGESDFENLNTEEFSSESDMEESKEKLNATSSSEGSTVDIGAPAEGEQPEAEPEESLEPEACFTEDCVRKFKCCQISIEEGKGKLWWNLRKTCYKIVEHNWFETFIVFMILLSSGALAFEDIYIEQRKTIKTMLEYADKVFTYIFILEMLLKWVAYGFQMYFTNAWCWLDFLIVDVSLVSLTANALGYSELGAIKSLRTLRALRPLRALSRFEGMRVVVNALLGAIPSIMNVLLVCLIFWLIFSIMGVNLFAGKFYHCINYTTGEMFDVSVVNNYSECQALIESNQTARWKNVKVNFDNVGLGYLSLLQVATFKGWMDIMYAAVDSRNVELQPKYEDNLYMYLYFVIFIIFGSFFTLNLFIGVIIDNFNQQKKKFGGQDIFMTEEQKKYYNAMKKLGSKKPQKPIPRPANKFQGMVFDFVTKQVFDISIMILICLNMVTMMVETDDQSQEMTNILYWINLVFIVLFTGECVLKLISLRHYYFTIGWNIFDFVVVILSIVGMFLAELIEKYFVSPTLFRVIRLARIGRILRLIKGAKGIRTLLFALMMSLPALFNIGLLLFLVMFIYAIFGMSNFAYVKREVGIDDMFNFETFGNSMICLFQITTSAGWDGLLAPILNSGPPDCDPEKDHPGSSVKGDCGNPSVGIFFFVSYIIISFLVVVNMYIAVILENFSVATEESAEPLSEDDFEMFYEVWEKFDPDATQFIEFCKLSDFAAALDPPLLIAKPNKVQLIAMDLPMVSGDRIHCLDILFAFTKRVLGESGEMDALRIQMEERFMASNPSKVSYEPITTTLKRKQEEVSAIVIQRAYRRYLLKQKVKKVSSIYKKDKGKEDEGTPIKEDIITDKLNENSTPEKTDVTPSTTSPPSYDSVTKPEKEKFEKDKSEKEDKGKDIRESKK
# experiment_notes: QPatch automated patch clamp, inhibition of sodium currents evoked by 5 Hz trains at three extracellular pH values
# Type: cell-based
# assay_context: pH=7.3; cc 300 mM; read-out: Apparent Affinity
quantity_kind: Kd (µM)
Numeric only. Scale: µM

Worked examples follow.
>  <compound>
O=C(NCC1CCCCN1)c1cc(OCC(F)(F)F)ccc1OCC(F)(F)F (stereo not drawn) [flecainide]

>  <u>
µM

>  <Kd>
25.9

$$$$
>  <compound>
CCN(CC)CC(=O)Nc1c(C)cccc1C

>  <u>
µM

>  <Kd>
806

$$$$
>  <compound>
NC(=O)N1c2ccccc2C=Cc2ccccc21 [carbamazepine]

>  <u>
µM

>  <Kd>
581

$$$$
>  <compound>
Nc1nnc(-c2cccc(Cl)c2Cl)c(N)n1

>  <u>
µM

>  <Kd>
622

$$$$
>  <compound>
Cc1cccc(C)c1OCC(C)N (stereo not drawn)

>  <u>
µM

>  <Kd>
189

$$$$

# ---- query compound ----
rNav1.2 sodium channels (Rattus norvegicus, UniProt P04775) data for O=C1NC(=O)C(c2ccccc2)(c2ccccc2)N1 ; its Kd: 781

###

Reported Ratio Reversibility values follow for various compounds
# measured_target: rNav1.2 sodium channels (Rattus norvegicus)
# Construct: host or cells: HEK-293
# experiment_notes: QPatch automated patch clamp, inhibition of sodium currents evoked by 5 Hz trains at three extracellular pH values
# Format: cell-based
# assay_context: pH 6.0/7.3; cc 100 mM
Enter a number only.

>  <compound>
CCCCN1CCCCC1C(=O)Nc1c(C)cccc1C (stereo not drawn)

>  <Ratio Reversibility>
0.906

$$$$
>  <compound>
COc1ccc(C(CN(C)C)C2(O)CCCCC2)cc1 (stereo not drawn)

>  <Ratio Reversibility>
0.250

$$$$
>  <compound>
Nc1c(Br)cc(Br)cc1CN[C@H]1CC[C@H](O)CC1

>  <Ratio Reversibility>
0.839

$$$$
>  <compound>
C[Si](C)(Cc1ccc(F)cc1)CN1CCCCC1

>  <Ratio Reversibility>
0.877

$$$$

The recorded Ratio Reversibility for entry CN1CCN2c3ncccc3Cc3ccccc3C2C1 (stereo not drawn) equals 0.272

The recorded Ratio Reversibility for entry CNCCC(Oc1ccccc1OC)c1ccccc1 (stereo not drawn) equals 1.076

The recorded Ratio Reversibility for entry CC12CC3CC(C)(C1)CC(N)(C3)C2 [memantine] equals 0.974

The recorded Ratio Reversibility for entry Cc1ccc(C(=O)C(C)CN2CCCCC2)cc1 (stereo not drawn) equals 0.699

The recorded Ratio Reversibility for entry COc1ccccc1OCC(O)CN1CCN(CC(=O)Nc2c(C)cccc2C)CC1 (stereo not drawn) equals 0.873

###

# measured_target: rNav1.2 sodium channels (Rattus norvegicus, UniProt P04775)
# Construct: host or cells: HEK-293
# experiment_notes: QPatch automated patch clamp, inhibition of sodium currents evoked by 5 Hz trains at three extracellular pH values
# Assay type: cell-based
# assay_context: pH 8.6; concentration (lidocaine 300 μM, memantine 30 μM)
quantity_kind: τonset (s)
Numeric only. Scale: s

Worked examples follow.
>  <molecule>
CN1CCN2c3ncccc3Cc3ccccc3C2C1 (stereo not drawn) [mirtazapine]

>  <measured_target>
rNav1.2 sodium channels (Rattus norvegicus, UniProt P04775)

>  <τonset, s>
10.40

$$$$
>  <molecule>
NC(=O)N1c2ccccc2C=Cc2ccccc21 [carbamazepine]

>  <measured_target>
rNav1.2 sodium channels (Rattus norvegicus, UniProt P04775)

>  <τonset, s>
5.00

$$$$
>  <molecule>
COc1ccc(C(CN(C)C)C2(O)CCCCC2)cc1 (stereo not drawn) [venlafaxine]

>  <measured_target>
rNav1.2 sodium channels (Rattus norvegicus, UniProt P04775)

>  <τonset, s>
8.40

$$$$

# ---- query molecule ----
The recorded τonset for entry Fc1ccc([C@@H]2CCNC[C@H]2COc2ccc3c(c2)OCO3)cc1 [paroxetine] equals 23.55
